Assay Info: qHTS RealTime-Glo MT Cell Viability Assay in HEK293 cells - 24 hour (AID 1224886); note: nearly all actives have a fitted effect of over 50% in size; note: potency is the fitted concentration of half-maximal effect
Measurement Context: RealTime-Glo luminescence; series mostly up to 76.8 µM
Results filed as inconclusive are left out. Calls of active or inactive are those of the source. Calls come from the whole dose curve; as a rule, active = well fitted cell-killing curve with a large enough effect in the repeat runs; inconclusive = weak or mixed curves, or effect the other way; inactive = flat fitted curve, though single readings scatter.
Measurement Name: Potency

Observe how each entry below is paired with its result.
1) CC(=O)Nc1ccc(N)cc1 : inactive
2) CN1CCCN=C1/C=C/c1cccs1 : inactive
3) CC(N)CN (stereo not drawn) : inactive
4) CC#N : inactive
5) O=C(CCCN1CCC(O)(c2ccc(Br)cc2)CC1)c1ccc(F)cc1 : 10.7 µM (active)

So what does the record say about Potency for O=C(Nc1ccc([N+](=O)[O-])cc1)Nc1ccc([N+](=O)[O-])cc1 ?
8.49 µM (active)

Name the recorded Potency for CCOC(=O)c1ccccc1C .
inactive

----------
Tested Target: Voltage-gated inwardly rectifying potassium channel KCNH2 (Homo sapiens) (UniProt Q12809)
Sequence (Q12809 whole entry, looked up): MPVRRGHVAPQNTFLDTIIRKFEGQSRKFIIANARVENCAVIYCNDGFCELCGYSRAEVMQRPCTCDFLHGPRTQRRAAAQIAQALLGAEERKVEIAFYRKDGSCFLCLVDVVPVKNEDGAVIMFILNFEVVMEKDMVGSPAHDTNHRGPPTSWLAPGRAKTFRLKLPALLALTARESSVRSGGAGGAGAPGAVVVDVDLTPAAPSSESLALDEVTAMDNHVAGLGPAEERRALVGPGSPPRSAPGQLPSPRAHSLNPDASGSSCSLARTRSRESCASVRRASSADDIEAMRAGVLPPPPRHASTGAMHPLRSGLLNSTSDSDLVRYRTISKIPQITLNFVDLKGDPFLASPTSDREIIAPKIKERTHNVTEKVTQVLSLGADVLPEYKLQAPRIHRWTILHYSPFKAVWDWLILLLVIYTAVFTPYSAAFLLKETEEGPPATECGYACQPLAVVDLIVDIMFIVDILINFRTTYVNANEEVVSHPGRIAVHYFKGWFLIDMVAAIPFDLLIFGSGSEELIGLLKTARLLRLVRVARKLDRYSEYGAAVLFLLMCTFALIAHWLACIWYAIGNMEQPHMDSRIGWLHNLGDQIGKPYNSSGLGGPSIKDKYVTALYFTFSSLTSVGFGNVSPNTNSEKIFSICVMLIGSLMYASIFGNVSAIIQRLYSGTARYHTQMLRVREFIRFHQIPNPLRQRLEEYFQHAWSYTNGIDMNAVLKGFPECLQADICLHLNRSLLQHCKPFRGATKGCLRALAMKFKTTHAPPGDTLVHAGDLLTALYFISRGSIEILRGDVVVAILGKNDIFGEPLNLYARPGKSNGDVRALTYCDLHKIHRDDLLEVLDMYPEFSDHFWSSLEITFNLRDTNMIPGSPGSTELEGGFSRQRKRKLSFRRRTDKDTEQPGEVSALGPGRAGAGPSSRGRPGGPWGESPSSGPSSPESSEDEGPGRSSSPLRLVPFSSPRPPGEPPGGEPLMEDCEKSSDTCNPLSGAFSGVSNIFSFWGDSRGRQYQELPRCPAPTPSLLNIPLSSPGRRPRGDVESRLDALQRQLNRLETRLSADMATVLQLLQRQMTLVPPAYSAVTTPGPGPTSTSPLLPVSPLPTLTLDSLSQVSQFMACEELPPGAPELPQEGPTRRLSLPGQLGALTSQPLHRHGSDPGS
Assay Info: Human Ether-a-go-go-Related Gene (hERG) channel small molecule antagonists: fluorescence cell-based qHTS assay (AID 1671200); note: nearly all actives have a fitted effect of over 50% in size
Measurement Context: hERG-U2OS cells, FluxOR thallium flux fluorescence; series mostly up to 76.8 µM
Results filed as inconclusive are left out. Calls of active or inactive are those of the source. The call rests on the fitted dose curve; in most records, active means well fitted inhibition curve with a large enough effect in the repeat runs; inconclusive means weak or mixed curves; inactive means flat fitted curve, though single readings scatter.
Log the outcome using a class from active, inactive

Before answering, review these 10 worked examples.
1. Cc1cc(O)c2c(O)c3c(O)cccc3cc2c1 : inactive
2. Nc1c(I)cc(I)c(C(=O)N(CCC(=O)O)c2ccccc2)c1I : inactive
3. Nc1ccc(Cl)cc1[N+](=O)[O-] : inactive
4. C[C@@H]1C[C@H]2[C@@H]3CCC4=CC(=O)C=C[C@]4(C)[C@@]3(F)[C@@H](O)C[C@]2(C)[C@@]1(O)C(=O)CO : inactive
5. C=CC(C)(C)CC(=O)OC : inactive
6. CC(C)c1nnc2ccc(-c3ocnc3-c3cc(F)ccc3F)cn12 : inactive
7. CC(=O)CC(c1ccc([N+](=O)[O-])cc1)c1c(O)c2ccccc2oc1=O (stereo not drawn) : inactive
8. Cc1occc1C(=O)Nc1ccc(C(=O)N2CCC(F)(F)/C(=C\C(=O)N3CCC(N4CCCCC4)CC3)c3ccccc32)cc1 : active
9. c1cnc2c(n1)CCCC2 : inactive
10. CCCCN(CCCC)CCCOC(=O)c1ccc(N)cc1 : active

So what was the verdict on c1ccc(COCc2ccccc2)cc1 in this test?
inactive

Name the outcome recorded for O=S(=O)(c1ccccc1)c1ccc(Cl)cc1 in the assay.
inactive

Please share the test call associated with O=C(CCC1CCN(Cc2ccccc2)CC1)c1ccc2c(c1)NCCCC2 .
active

----------
Assay Info: qHTS assay to identify small molecule antagonists of the thyroid receptor (TR) signaling pathway (AID 743065); note: nearly all actives have a fitted effect of over 55% in size
Measurement Context: GH3.TRE-Luc, T3-stimulated luciferase inhibition, 23.5 h; series mostly up to 70.3 µM
Inconclusive results are not listed. Calls of active or inactive are those of the source. Calls follow the shape of the dose curve; as a rule, active = well fitted inhibition curve with a large enough effect in the repeat runs; inconclusive = weak or mixed curves; inactive = no such curve, though single readings can be large or run the other way.
Measurement Name: outcome

Below, 5 molecules whose answers are already recorded.
1. Oc1cc(O)c(Cl)cc1Cl : inactive
2. CC1(C)C(=O)N(Br)C(=O)N1Cl : inactive
3. NC(=O)Nc1ccc(Cl)cc1 : inactive
4. CC1(C)O[C@@H]2C[C@H]3[C@@H]4CCC5=CC(=O)C=C[C@]5(C)[C@H]4[C@@H](O)C[C@]3(C)[C@]2(C(=O)CO)O1 : inactive
5. CN1CCN(c2c(F)cc3c(=O)c(C(=O)O)cn4c3c2OCN4C)CC1 : inactive

Please examine the following record next.
# input molecule: CC1CC(O)CC(C)(C)C1 (stereo unspecified) ; wanted: its outcome
inactive

----------
Assay Info: qHTS assay to identify small molecule antagonists of the estrogen receptor alpha (ER-alpha) signaling pathway using the BG1 cell line - cell viability counter screen (AID 743081);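 note: compound given together with 17beta-estradiol as the ER stimulus; nearly all actives have a fitted effect of over 45% in size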
Measurement Context: BG1Luc4E2 viability, CellTiter-Fluor, 22 h; series mostly up to 70.3 µM
Results filed as inconclusive are left out. Calls of active or inactive are those of the source. Calls follow the shape of the dose curve; as a rule, active = well fitted cell-killing curve with a large enough effect in the repeat runs; inconclusive = weak or mixed curves, or effect the other way; inactive = flat fitted curve, though single readings scatter.
Measurement Name: outcome

Solved cases below.
1) CCC(=O)OC/C=C/c1ccccc1 : inactive
2) O=C(/C=C/c1ccccc1)OCCCc1ccccc1 : inactive
3) O=C1NCCN1 : inactive
4) CCCOC(=O)c1ccc(C(=O)OCCC)nc1 : inactive

Turning to the following molecule.
Look up outcome: NC(=O)Nc1ccc(Cl)cc1
inactive

----------
Assay Info: qHTS assay to identify small molecule agonists of the estrogen receptor alpha (ER-alpha) signaling pathway in the presence of an antagonist - cell viability counter screen (AID 1259386);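 note: cells exposed to compounds for 22 h at 37 °C before the viability read; nearly all actives have a fitted effect of over 30% in size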
Measurement Context: VM7Luc4E2 viability, CellTiter-Fluor fluorescence, 22 h; series mostly up to 92.4 µM
Results filed as inconclusive are left out. Active and inactive are the calls of the source. The call rests on the fitted dose curve; in most records, active means well fitted cell-killing curve with a large enough effect in the repeat runs; inconclusive means weak or mixed curves, or effect the other way; inactive means no such curve, though single readings can be large or run the other way.
API: response.call in true (1) for active, false (0) for inactive

Tell me the recorded outcome of this test for COc1cc2ncnc(Nc3ccc(F)c(Cl)c3)c2cc1OCCCN1CCOCC1 .
false (0)

Call for entry N#C/C(=C1/SC[C@@H](c2ccc(Cl)cc2Cl)S1)n1ccnc1 :
false (0)

# outcome recorded in this test, key = COCC(O)CO (stereo unspecified)
false (0)

Hi team, can someone confirm the assay call for Cc1oncc1C(=O)Nc1ccc(C(F)(F)F)cc1 ?
false (0)

Could you kindly confirm the outcome this assay logged for CN1CCCN=C1/C=C/c1cccs1 ?
false (0)

Dear colleague, could you share the recorded outcome for Cc1cc(O)c2c(O)c3c(O)cccc3cc2c1 when you have a moment?
false (0)

Assay outcome for COc1ccccc1N=Nc1c(S(=O)(=O)O)cc2cc(S(=O)(=O)O)cc(NC(C)=O)c2c1O : what was it?
true (1)

// return assay outcome for CCCCC(CC)C(=O)OCCOCCOCCOCCOC(=O)C(CC)CCCC (stereo unspecified)
false (0)

----------
Assay Info: qHTS assay to identify small molecule antagonists of the vitamin D receptor (VDR) signaling pathway - cell viability counter screen (AID 743225); note: nearly all actives have a fitted effect of over 50% in size
Measurement Context: VDR-bla HEK293T viability, CellTiter-Glo luminescence, 16 h; series mostly up to 61 µM
Results filed as inconclusive are left out. The source made the active and inactive calls. Calls come from the whole dose curve; as a rule, active = well fitted cell-killing curve with a large enough effect in the repeat runs; inconclusive = weak or mixed curves, or effect the other way; inactive = no such curve, though single readings can be large or run the other way.
Just give me one of these, please: active, inactive

Sample answers from the record:
1. CCCCC(=O)O[C@]1(C(=O)CO)CC[C@H]2[C@@H]3CCC4=CC(=O)CC[C@]4(C)[C@H]3[C@@H](O)C[C@@]21C : inactive
2. C=CC(C)(C)CC(=O)OC : inactive
3. CC(=O)Oc1ccc(C(=C2CCCCC2)c2ccc(OC(C)=O)cc2)cc1 : inactive
4. O=C(NCCCN1CCOCC1)c1ccc(Cl)cc1 : inactive

Hi, do you know how c1cnc2c(n1)CCCC2 came out in this test?
inactive

Status in this test for C/C=C/C=C/CCCCCCCO ?
inactive

Please share the test call associated with CCCCCCCCCCCCCCC[C@H](O)[C@@H](N)CO .
inactive

// return assay outcome for O=C(CS)OCCOC(=O)CS
inactive

Each molecule tested received a call. Report the one for CCOCCn1c(C2CCN(CCc3ccc(C(C)(C)C(=O)O)cc3)CC2)nc2ccccc21 .
inactive

Record request — test call for CC[C@@H]([C@H](C)O)n1ncn(-c2ccc(N3CCN(c4ccc(OC[C@@H]5CO[C@@](Cn6cncn6)(c6ccc(F)cc6F)C5)cc4)CC3)cc2)c1=O
active

What was the test verdict on CCC(=O)OC/C=C/c1ccccc1 ?
inactive

----------
Assay Info: qHTS assay to identify small molecule antagonists of the estrogen related receptor (ERR) signaling pathway from Tox21 library (AID 1224848); note: nearly all actives have a fitted effect of over 50% in size; note: potency is the fitted concentration of half-maximal effect
Measurement Context: ERR reporter cell line, luciferase antagonist mode, 18 h; series mostly up to 92.4 µM
Results filed as inconclusive are left out. Activity calls are given as the source filed them. Calls follow the shape of the dose curve; as a rule, active = well fitted inhibition curve with a large enough effect in the repeat runs; inconclusive = weak or mixed curves; inactive = no such curve, though single readings can be large or run the other way.
Measurement Name: Potency

Take a look at these entries with their results.
1. Cc1oc(C)c(C(=O)Nc2ccccc2)c1C : 17.2 µM (active)
2. O=C(O)Cc1ccc(-c2ccccc2)cc1 : inactive
3. CCCCCCCCSCCO : inactive
4. Nc1ccc(Cl)cc1[N+](=O)[O-] : inactive
5. O=C(Nc1ccccc1)Nc1ccccc1 : inactive

What value of Potency has been recorded for this entry: CO[C@H]1O[C@H](CO)[C@@H](O)[C@H](O)[C@H]1O
inactive

Quick check: Potency of NC(=O)Cn1c(=O)cc(CCN2CCN(c3nccc4sccc34)CC2)c2ccc(F)cc21 ?
54.5 µM (active)

----------
Tested Target: Progesterone receptor (Homo sapiens) (UniProt P06401)
Sequence (P06401 whole entry, looked up): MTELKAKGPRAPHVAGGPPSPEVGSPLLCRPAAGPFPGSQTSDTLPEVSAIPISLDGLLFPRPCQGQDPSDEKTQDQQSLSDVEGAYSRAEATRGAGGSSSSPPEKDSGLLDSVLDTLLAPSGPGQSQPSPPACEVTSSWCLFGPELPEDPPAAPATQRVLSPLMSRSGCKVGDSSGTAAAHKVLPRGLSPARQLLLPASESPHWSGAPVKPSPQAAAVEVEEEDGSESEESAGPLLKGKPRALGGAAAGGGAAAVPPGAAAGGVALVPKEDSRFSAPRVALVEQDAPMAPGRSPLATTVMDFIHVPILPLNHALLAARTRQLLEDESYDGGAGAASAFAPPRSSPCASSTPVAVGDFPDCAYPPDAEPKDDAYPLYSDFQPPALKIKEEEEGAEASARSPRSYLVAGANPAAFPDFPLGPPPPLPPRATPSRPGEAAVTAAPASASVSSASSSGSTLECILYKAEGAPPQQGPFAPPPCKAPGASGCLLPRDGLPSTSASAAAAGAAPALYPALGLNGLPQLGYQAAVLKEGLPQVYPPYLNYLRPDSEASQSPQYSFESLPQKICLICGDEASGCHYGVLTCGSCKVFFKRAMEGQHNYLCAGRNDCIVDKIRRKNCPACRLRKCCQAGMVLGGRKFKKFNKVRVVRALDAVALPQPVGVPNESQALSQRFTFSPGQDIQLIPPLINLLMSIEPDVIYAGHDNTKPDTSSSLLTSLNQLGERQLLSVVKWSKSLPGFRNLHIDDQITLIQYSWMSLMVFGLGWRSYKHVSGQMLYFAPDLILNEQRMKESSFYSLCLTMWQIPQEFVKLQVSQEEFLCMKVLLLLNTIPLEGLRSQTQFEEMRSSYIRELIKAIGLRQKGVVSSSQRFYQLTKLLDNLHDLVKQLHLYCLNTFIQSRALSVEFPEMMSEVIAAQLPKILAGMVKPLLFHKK
Assay Info: qHTS assay to identify small molecule agonists of the progesterone receptor (PR) signaling pathway (AID 1346784); note: nearly all actives have a fitted effect of over 30% in size
Measurement Context: PR-UAS-bla HEK293T, beta-lactamase FRET ratio, 16 h; series mostly up to 92.4 µM
Inconclusive results are not listed. Active and inactive are the calls of the source. Calls come from the whole dose curve.
Return exactly one item of active, inactive

1) N#C[C@@H]1C[C@@H]2C[C@@H]2N1C(=O)[C@@H](N)C12CC3CC(CC(O)(C3)C1)C2 : inactive
2) C=CCCCCCCCCCCCCCCCC : active
3) Nc1c(I)cc(I)c(C(=O)N(CCC(=O)O)c2ccccc2)c1I : inactive
4) O=C(CCC1CCN(Cc2ccccc2)CC1)c1ccc2c(c1)NCCCC2 : inactive
5) C=CC(=O)NCOCC(C)C : inactive

Please state the recorded outcome for this molecule: O=S1OCCO1
inactive

So what was the verdict on COCC(O)CO (stereo not drawn) in this test?
inactive

How was Cc1cc(S(=O)(=O)O)ccc1N=Nc1c(O)ccc2ccccc12 classified in this test?
inactive

Recorded call for COC(OC)(C(=O)c1ccccc1)c1ccccc1 ?
inactive

For this molecule, state the assay outcome: Cc1ccc(S(=O)(=O)NC2CCCCC2)cc1
inactive

Could you check what this test reported for O=C(Nc1ccc([N+](=O)[O-])cc1)Nc1ccc([N+](=O)[O-])cc1 ?
inactive

What did this assay record as the result for O=S(=O)(c1ccccc1)c1ccc(Cl)cc1 ?
inactive

Each molecule tested received a call. Report the one for C=C(C)C(=O)OCCOC(=O)CC(C)=O .
inactive
